# key: entry, value: GI50
test system: SF-268; experiment: NCI tumour cell line growth inhibition, 48 h
Activity calls are given as the source filed them. No stated cut-off is given here; in the data, active = GI50 up to about 1.1 µM and inactive = higher. Where a SMILES comes first, the peptide text is derived from it. Square brackets hold non-standard residues; d marks the D form. Bridges are numbered along the chain shown (N, C = ends). Peptide text beside a SMILES is read from it. [ ]: non-standard residue; d: D form. The star is where a group is joined. ξ: configuration not given here. ξNMePhe(4-NMe2) = CNC(Cc1ccc(N(C)C)cc1)C(=O)O; Picolinoyl(3-OH) = O=C(c1ncccc1O)*; ξPip(4-oxo) = O=C1CCNC(C(=O)O)C1; Phg = N[CH](C(=O)O)c1ccccc1; ξ2Thi = NC(Cc1cccs1)C(=O)O; ξR = N=C(N)NCCCC(N)C(=O)O; Abu = CC[CH](N)C(=O)O; ξI = CCC(C)C(N)C(=O)O; ξL = CC(C)CC(N)C(=O)O; ξK = NCCCCC(N)C(=O)O; ξT = CC(O)C(N)C(=O)O; ξA = CC(N)C(=O)O

>  <molecule>
O=S(=O)(O)c1ccc2c(/N=N\c3cccc4ccccc34)c(O)c(S(=O)(=O)O)cc2c1

>  <GI50>
> 100 µM (inactive)

$$$$
>  <molecule>
CN1CC2=C(N=C(S)NC2c2ccccc2)/C(=C/c2ccccc2)C1 (configuration not stated)

>  <GI50>
> 100 µM (inactive)

$$$$
>  <molecule>
COc1ccc(NC(C)c2ccncc2)cc1 (configuration not stated)

>  <GI50>
> 100 µM (inactive)

$$$$
>  <molecule>
COc1cc2nc(NCCCCCNC(=O)c3ccco3)nc(N)c2cc1OC

>  <GI50>
36.2 µM (inactive)

$$$$
>  <molecule>
Cc1cccc(NC(=O)CC2C(=O)Nc3ccccc3S2(=O)=O)c1C (configuration not stated)

>  <GI50>
33.2 µM (inactive)

$$$$
>  <molecule>
C/C=C(/C)C(=O)O[C@H]1CCN2CC=C(COC(=O)[C@@](O)([C@H](C)OC)C(C)(C)O)[C@H]12

>  <GI50>
> 100 µM (inactive)

$$$$
>  <molecule>
COc1ccc(/C(C)=N/NC(=O)c2ccncc2)cc1OC

>  <GI50>
> 10 µM (inactive)

$$$$
>  <molecule>
CN(C)c1ccc(/C=C/c2ccnc3ccccc23)cc1N

>  <GI50>
9.73 µM (inactive)

$$$$
>  <molecule>
CCOP(=O)(CC(=O)C1CC1)OCC

>  <GI50>
> 100 µM (inactive)

$$$$
>  <molecule>
C=C1C(=O)OC2CC(=C)C3CC=C(C)C3CC12 (configuration not stated)

>  <GI50>
34 µM (inactive)

$$$$
>  <molecule>
C[C@@H](NC(=O)Cn1c(Cl)nc2ccccc21)c1ccccc1

>  <GI50>
> 100 µM (inactive)

$$$$
>  <molecule>
CC(C)Oc1c(N(Cc2ccccc2)c2ccccc2C2SCCCS2)c(=O)c1=O

>  <GI50>
5.96 µM (inactive)

$$$$
>  <molecule>
CCOC(=O)CCC(NC(=O)c1ccc(NCc2ccc3nc(-c4ccccc4)c(Cl)nc3c2)c2ccccc12)C(=O)OCC (configuration not stated)

>  <GI50>
> 100 µM (inactive)

$$$$
>  <molecule>
FC(F)(F)c1n[nH]c(SCc2ccc(Cl)cc2)n1

>  <GI50>
> 100 µM (inactive)

$$$$
>  <molecule>
CC(=O)O/N=C/c1ncccc1CO

>  <GI50>
> 100 µM (inactive)

$$$$
>  <molecule>
COC(=O)C(=O)C(C(=O)C=C(C)C)C(=O)C(=O)Nc1ccc(Cl)cc1C (configuration not stated)

>  <GI50>
> 100 µM (inactive)

$$$$
>  <molecule>
CC(=O)OCCCOCn1c(Cc2ccccc2)c(C)c(=O)[nH]c1=O

>  <GI50>
> 100 µM (inactive)

$$$$
>  <molecule>
O=C1/C(=C\c2cccc(Oc3ccccc3)c2)SC(c2ccccc2)N1Cc1ccccc1 (configuration not stated)

>  <GI50>
35 µM (inactive)

$$$$
>  <molecule>
CCC(C)C(NC(=O)C(Cc1cccs1)NC(=O)C(CC(C)C)NC(=O)C(CC(C)C)NC(=O)C(CCCCN)NC(=O)C(CCCN=C(N)N)NC(=O)[C@H](Cc1ccc(O)cc1)NC(=O)C(NC(=O)C(C)NC(=O)C(N)CC(C)C)C(C)O)C(=O)NC(CC(C)C)C(N)=O (some centres not stated) (H-[ξL][ξA][ξT]Y[ξR][ξK][ξL][ξL][ξ2Thi][ξI][ξL]-NH2)

>  <GI50>
> 50 µM (inactive)

$$$$
>  <molecule>
O=C(NC(=S)Nc1ccc([N+](=O)[O-])cc1)c1ccc2c(c1)Sc1ccccc1O2

>  <GI50>
30.2 µM (inactive)

$$$$
>  <molecule>
c1ccc2c(c1)c1c3c(c4c(n32)=NCCN4)CCC1

>  <GI50>
31.6 µM (inactive)

$$$$
>  <molecule>
CC1=C/C(O)CC(=O)Cc2nc(co2)C(=O)N2CCC=C2C(=O)OC(C(C)C)C(C)/C=C/C(=O)NC\C=C\1.CCC1NC(=O)C(NC(=O)c2ncccc2O)C(C)OC(=O)C(c2ccccc2)NC(=O)C2CC(=O)CCN2C(=O)C(Cc2ccc(N(C)C)cc2)N(C)C(=O)C2CCCN2C1=O (configuration not stated) ({Picolinoyl(3-OH)}-T[Abu]P[ξNMePhe(4-NMe2)][ξPip(4-oxo)][Phg]; ester 1-C; configuration not given here)

>  <GI50>
24.4 µM (inactive)

$$$$
